These data points were gathered from the supplement of paper PMC6555819.

Tested on: VDR homodimer (NR concentration 270 nM)
Assay: PBM binding z-score (relative to random genomic background probes); higher = stronger binding; sequences stand for … in GC…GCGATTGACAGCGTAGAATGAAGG
Below, each of the sequences is paired with its reported PBM binding z-score value.
// print number alone

Sample records with PBM binding z-score:
# INPUT_SEQUENCE, TARGET_OR_TEST_SYSTEM, PBM binding z-score
data = [
    ("AGAACGATGGCAATGAGTTGATAGCACGGGTGGC", "VDR homodimer (NR concentration 270 nM)", -0.0604),
    ("CGACCTAGGTCATTGACAGGACAGTGAATAGTAA", "VDR homodimer (NR concentration 270 nM)", 1.47),
]

Returns the measured PBM binding z-score for the input sequence. Input: `GCTGCTAGGTCACGTTGGTCAGCTAACGGGTACG`
0.836

Entry `CCGAGTAGGTTATCGGGCATTCAGGCAACGGTGA` has what PBM binding z-score?
-0.435

Quick check: PBM binding z-score of `ACTAGCAGGCCAAGGGTCACTCGAGATTAGTCCG` ?
1.06

Entry `CAAACTAGGTCACATAGGTCAAAGTCCGTGCGTA` has what PBM binding z-score?
3.91

Please look up its PBM binding z-score: `TTACCAAGGTGAGCTGAGGTCGTTGAGCCAACTC`
1.96

###

Test system: PPARg:RXRa 30nM:10nM, anti-RXR (NR concentration 30 nM, RXRa partner concentration 10 nM)
Assay: PBM binding z-score (relative to random genomic background probes); higher = stronger binding; sequences stand for … in GC…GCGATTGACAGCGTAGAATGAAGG
// PBM binding z-score lookup, one value per entry
Provide a numeric answer; units are not to be included.

Below, each entry is followed by its recorded PBM binding z-score result.
# INPUT_SEQUENCE, PBM binding z-score
records = [
    ("AGAATGAGGTTATACGCAGATCAGGGAAGAAAGT", 0.827),
    ("TCGAGTAGGTTACCAATGGGGCATTCAGCTTTCT", 1.14),
    ("GCGACTGGGGCATCGGCAGGTTACCATAACTTAA", -0.324),
    ("ACTAGTTGGTCAGGTGAGGTCACACACAATTCGG", 0.906),
    ("GCTTGCAGGCCATTTGGGTCACTCAATGACGGGC", 0.00542),
    ("TCTAGTTGGTCAAAGGGCACACACTCGAAATGCG", 7.7),
    ("TCATACAGGTAAAGGTGAAAGTCGAACGATATGA", 4.26),
    ("GCTTACGGGTCAAGGGTTATAGCATGAATAGAAT", 6.16),
]

What PBM binding z-score appears in the records for this sequence with PPARg:RXRa 30nM:10nM, anti-RXR (NR concentration 30 nM, RXRa partner concentration 10 nM)? `TCGAGTAGGTAACCAATGGGGCATTCAGCTTTCT`
1.08

Provide value of PBM binding z-score for this record tested with PPARg:RXRa 30nM:10nM, anti-RXR (NR concentration 30 nM, RXRa partner concentration 10 nM): `GCTATTAGTTGAAAGGGCAACCTAATGATTCTCG`
2.24

Item `ACTTACGGGTCAACGAGGTTATATCACGCGTATA` with PPARg:RXRa 30nM:10nM, anti-RXR (NR concentration 30 nM, RXRa partner concentration 10 nM) - PBM binding z-score?
2.11

Kindly state the measured PBM binding z-score obtained for `GGAACGAGGGCAAAGTTGACAGCATCTGTCGACG` with PPARg:RXRa 30nM:10nM, anti-RXR (NR concentration 30 nM, RXRa partner concentration 10 nM).
7.72

###

Test system: VDR homodimer (NR concentration 270 nM)
Test: PBM binding z-score (relative to random genomic background probes); higher = stronger binding; sequences stand for … in GC…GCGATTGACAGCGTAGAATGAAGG
MEASURED_ATTRIBUTE: PBM binding z-score
Just the number, please, no unit attached.

Would you please look over these solved cases?
# INPUT_SEQUENCE, PBM binding z-score
data = [
    ("TCGCCTAGGTCATTGGGCCAGTATAGTACGCATC", 1.57),
    ("GCTTGCGGGTCAAAGGTTATAGCATGAATAGAAT", 0.927),
]

Lab note: next sequence to report on.
Given the entry `ACTATTAGTTGATTTAGGGCAACCGATACGACGC` , what PBM binding z-score was observed with VDR homodimer (NR concentration 270 nM)?
0.367

###

Tested on: PXR:RXRa (NR concentration 270 nM, RXRa partner concentration 90 nM)
Assay: PBM binding z-score (relative to random genomic background probes); higher = stronger binding; sequences stand for … in GC…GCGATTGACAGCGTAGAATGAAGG
Parameter: PBM binding z-score. Scope: all listed entries.
Answer using only a numeral; do not append any unit.

# INPUT_SEQUENCE, PBM binding z-score
measured = [
    ("TCAATGAGGTTATAAGATCAGGGAACGTTGCAAA", 0.939),
    ("CCTCAGAGGACAACAGGAGGTCAGAGCTGCCAGA", 2.04),
    ("TCGAGTAGGCTAGTCGGGGCATTCAGCCAACATA", -0.462),
    ("CGTCCAAAGTCATAGGAGGTCAGTGAAGACAGAT", 3.35),
]

What does the data say about its PBM binding z-score? Entry: `ACAGACAGGTGATGAAGGTACCTCAGGCTATCAT`
-0.279

I'd like to know its PBM binding z-score. The sequence in question is `CCTTACGGGTCACGATGTTATAGCACGACGAGCG`
3.41

# PBM binding z-score lookup, item `CATACAGGGTCAGCCAGGCCAGAGTAGGGACGGC`
2.5

###

Listed below: PBM binding z-score values for each entry.
Tested on: PPARg:RXRa IVT, anti-PPARg (NR concentration 270 nM, RXRa partner concentration 90 nM)
Assay: PBM binding z-score (relative to random genomic background probes); higher = stronger binding; sequences stand for … in GC…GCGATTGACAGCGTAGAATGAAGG

A selection of reference data follows.
# INPUT_SEQUENCE, MEASURED_ATTRIBUTE, MEASUREMENT
measured = [
    ("ATATGAAGGTTAGCTGGGGTCATTCAGACTAGGC", "PBM binding z-score", 2.19),
    ("ATCGAAAGCTCGACGAGGTGAGTATACACCGTTT", "PBM binding z-score", 0.00949),
    ("GATACTGGGTCAAGGCCAGAGTACGCGTATTGAT", "PBM binding z-score", 7.44),
    ("CCTAGCAGGCCGATCTGGGTCACTCAAGGCTTGA", "PBM binding z-score", 4.02),
    ("TAGCCTAGCTCATGCGGGCCAGTATAGTGTCGGC", "PBM binding z-score", -0.527),
]

// next item, PBM binding z-score requested
For the sequence shown here, `ATCTCTAGGTAACCAAGATCAGTGAATGCCGAAC` , give the reported PBM binding z-score.
2.67

###

Tested on: PXR:RXRa (NR concentration 270 nM, RXRa partner concentration 90 nM)
Assay: PBM binding z-score (relative to random genomic background probes); higher = stronger binding; sequences stand for … in GC…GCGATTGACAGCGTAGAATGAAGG
MEASURED_ATTRIBUTE: PBM binding z-score
Lab note: record the figure alone, no unit after it.

Would you please look over these solved cases?
# INPUT_SEQUENCE, TARGET_OR_TEST_SYSTEM, PBM binding z-score
data = [
    ("GCTCGGAGGACAAGGTCAGACCTTTGTCCGTAGA", "PXR:RXRa (NR concentration 270 nM, RXRa partner concentration 90 nM)", 2.18),
    ("CCGACTGGGGCATAAGGTTACCACAAGCCAGCCC", "PXR:RXRa (NR concentration 270 nM, RXRa partner concentration 90 nM)", 0.223),
    ("CCAGCCAGGTGAGAAGGTAACTCAGCCTCGATTA", "PXR:RXRa (NR concentration 270 nM, RXRa partner concentration 90 nM)", -0.486),
    ("AATACAGGGTCACTAGTCCAGAGTAGGTACGAAT", "PXR:RXRa (NR concentration 270 nM, RXRa partner concentration 90 nM)", 2.97),
    ("CCTACTGGACCACGAAAGGTCATTGATTCAGTGA", "PXR:RXRa (NR concentration 270 nM, RXRa partner concentration 90 nM)", 5.28),
]

Look up PBM binding z-score: `TCTTCTAGATCAAAGGTTAAGAAAGCCGAAGCCT`
1.63

Entry `CTAGAAAGGTCGGTTGAGGTGAGTATACGGATAA` has what PBM binding z-score?
3.37
